- targetDesc: L3MBTL3 (Homo sapiens)
- Sequence (Q96JM7 225-555 limits assumed): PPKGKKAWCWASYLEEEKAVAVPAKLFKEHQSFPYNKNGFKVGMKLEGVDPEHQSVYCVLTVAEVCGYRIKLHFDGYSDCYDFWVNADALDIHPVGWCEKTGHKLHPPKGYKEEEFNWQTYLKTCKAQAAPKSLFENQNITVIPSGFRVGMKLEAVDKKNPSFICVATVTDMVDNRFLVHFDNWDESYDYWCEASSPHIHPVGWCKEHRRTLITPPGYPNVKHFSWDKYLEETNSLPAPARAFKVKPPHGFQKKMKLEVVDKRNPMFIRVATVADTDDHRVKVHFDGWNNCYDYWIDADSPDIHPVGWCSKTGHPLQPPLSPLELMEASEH
- assayNotes: AlphaScreen methylated histone peptide competition assay
- Assay type: binding
- particulars: compared with UNC2533; 12 and 13 after incubation time of 30 minutes
readoutKind: Fold drop in L3MBTL3 activity (AlphaScreen) relative to UNC2533

> print(dat)
                                   compound   result
1  N#CC1CCN(CCc2ccc(N3CCC(N4CCCC4)CC3)cc2)C1 (stereo not drawn)   5 fold
2  O=C1CCN(CCc2ccc(N3CCC(N4CCCC4)CC3)cc2)C1   5 fold
3     c1cc(N2CCC(N3CCCCC3)CC2)ccc1CCN1CCCC1   9 fold
4               c1cc(CN2CCCC2)ccc1CCN1CCCC1  20 fold

Data provenance: paper PMC3897169
